Examples of compounds with documented Population Pyknosed Nuclei (%) follow.
- Test system: HEK-293T
- Protocol description: Multiplex assay against HEK293T
- Format: toxicity, cell-based
- Measurement context: human, 48 h, 10 µM, compound concentration 10 uM, replicate 2
Assay endpoint: Population Pyknosed Nuclei (%)

INSERT INTO measurements (compound, reported_measurement) VALUES
  ('CC(C)(C)c1ccc(CSc2cnn(C(C)(C)C)c(=O)c2Cl)cc1', '14%'),
  ('COc1cc(C(=O)N2CC[C@@H](O)[C@@H](N)C2)cc2nc(-c3cc4ccccc4n3CC3CC3)n(C)c12.Cl', '10%'),
  ('Cc1cc(=O)n(C)c2cc(N3C(=O)CC[C@H](NS(=O)(=O)CC(C)C)[C@H]3c3ccc(Cl)cc3)ccc12', '19%'),
  ('Cc1cc(O)c(-c2ccc([C@@H](C)CN(C)C)cc2)c2c1[nH]c(=O)c1sccc12', '28%'),
  ('CN1CCN2c3ccccc3Cc3ccccc3C2C1.Cl (centres undefined) [MIANSERIN HYDROCHLORIDE]', '6%'),
  ('CC(F)(F)CN1CCOc2c(nn(-c3ccccc3Cl)c2-c2ccc(Cl)cc2)C1=O', '11%'),
  ('CN(C)C(=O)Cn1cc(-c2ccc(-c3nnc4ccccn34)cc2)cn1', '5%'),
  ('O=c1nc2[nH]c3ccccc3nc-2c(=O)[nH]1', '6%'),
  ('Cc1sc2c(c1C)C(c1ccc(Cl)cc1)=N[C@H](CC(=O)OC(C)(C)C)c1nnc(C)n1-2', '15%');
